koff values for the binders below.
Molecular target: T1, Human GDF15 Fc (human, UniProt Q99988 195-308, limits assumed, biotinylated (EZ-Link Sulfo-NHS-Biotinylation Kit) in the SPR assay)
T1 construct: also called human GDF15-Fc fusion; biotinylated Human GDF15 Fc; not shown: Fc part
T1 sequence: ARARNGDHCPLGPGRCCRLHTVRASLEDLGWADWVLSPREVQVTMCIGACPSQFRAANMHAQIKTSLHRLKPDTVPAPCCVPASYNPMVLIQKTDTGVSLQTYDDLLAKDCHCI
Test: SPR Biacore 8K; biotinylated antigen captured, Fab analyte
Your answer should be a plain number; it is taken to be in s⁻¹.

Example entries and their recorded answers appear below.
GDF15 antibody agent Clone T, Fab (Fab, V domains shown, Fab; CH1 and CL of the Fab not specified; also called Fab of Clone T) VH: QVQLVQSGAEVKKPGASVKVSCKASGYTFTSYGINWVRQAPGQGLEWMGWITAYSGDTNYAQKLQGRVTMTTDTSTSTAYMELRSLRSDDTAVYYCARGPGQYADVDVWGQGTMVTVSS VL: DIQMTQSPSSVSASVGDRVTITCRASQGISSWLAWYQQKPGKAPKLLIYAASSLQSGVPSRFSGSGSGTDFTLTISSLQPEDFATYYCQQASQFPITFGGGTKVEIK ... 4.52e-05
GDF15 antibody agent Clone S, Fab (Fab, V domains shown, Fab; CH1 and CL of the Fab not specified; also called Fab of Clone S) VH: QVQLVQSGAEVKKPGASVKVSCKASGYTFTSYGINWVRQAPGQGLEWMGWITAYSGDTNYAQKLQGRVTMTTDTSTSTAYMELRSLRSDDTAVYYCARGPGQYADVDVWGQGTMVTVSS VL: DIQLTQSPSSVSASVGDRVTITCRASQGISPWLAWYQQKPGKAPKLLIYAASSLQSGVPSRFSGSGSGTDFTLTISSLQPEDFATYYCQQANSFPITFGGGTKVEIK ... 4.93e-05
GDF15 antibody agent Clone E, Fab (Fab, V domains shown, Fab; CH1 and CL of the Fab not specified; also called Fab of Clone E) VH: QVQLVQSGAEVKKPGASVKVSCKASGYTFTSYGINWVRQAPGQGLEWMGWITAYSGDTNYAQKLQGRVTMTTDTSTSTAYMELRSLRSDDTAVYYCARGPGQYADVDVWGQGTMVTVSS VL: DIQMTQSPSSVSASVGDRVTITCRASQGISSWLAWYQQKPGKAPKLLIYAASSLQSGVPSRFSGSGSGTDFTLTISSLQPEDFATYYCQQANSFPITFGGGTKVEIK ... 8.71e-05
GDF15 antibody agent Clone P, Fab (Fab, V domains shown, Fab; CH1 and CL of the Fab not specified; also called Fab of Clone P) VH: QVQLVQSGAEVKKPGATVKVSCKASGYTFDSYGIHWVRQAPGQGLEWMGWITAYSGDTVYAQKLQGRVTMTTDTSTSTAYMELRSLRSDDTAVYYCARESGQTSSALGPWGQGTLVTVSS VL: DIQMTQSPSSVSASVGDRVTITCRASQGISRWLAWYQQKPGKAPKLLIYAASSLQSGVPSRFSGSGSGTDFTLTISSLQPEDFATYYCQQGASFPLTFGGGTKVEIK ... 0.0021
GDF15 antibody agent Clone K, Fab (Fab, V domains shown, Fab; CH1 and CL of the Fab not specified; also called Fab of Clone K) VH: QVQLVQSGAEVKKPGASVKVSCKASGYTFTNEGISWVRQAPGQGLEWMGWISAYTADTFYAQKLQGRVTMTTDTSTSTAYMELRSLRSDDTAVYYCARTRHDTSGLRFDYWGQGTLVTVSS VL: DIQMTQSPSSVSASVGDRVTITCRASQGIDSWLAWYQQKPGKAPKLLIYAASSLQSGVPSRFSGSGSGTDFTLTISSLQPEDFATYYCQQVHSFPITFGGGTKVEIK ... 0.00112

Q. Given the entry GDF15 antibody agent Clone J, Fab (Fab, V domains shown, Fab; CH1 and CL of the Fab not specified; also called Fab of Clone J) VH: QVQLVQSGAEVKKPGASVKVSCKASGYTFTSYGINWVRQAPGQGLEWMGWIDAYSGSTNYAQKLQGRVTMTTDTSTSTAYMELRSLRSDDTAVYYCARGPGQYADVDVWGQGTMVTVSS VL: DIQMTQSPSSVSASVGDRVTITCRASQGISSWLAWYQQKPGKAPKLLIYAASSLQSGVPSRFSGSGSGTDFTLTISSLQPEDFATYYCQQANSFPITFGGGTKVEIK , report its measured koff.
A. 0.000404

Q. Given the entry GDF15 antibody agent Clone O, Fab (Fab, V domains shown, Fab; CH1 and CL of the Fab not specified; also called Fab of Clone O) VH: QVQLVQSGAEVKKPGATVKVSCKASGYTFDSLGMSWVRQAPGQGLEWMGYISTYSGDTVYAQKLQGRVTMTTDTSTSTAYMELRSLRSDDTAVYYCARESGQQVSALDPWGQGTLVTVSS VL: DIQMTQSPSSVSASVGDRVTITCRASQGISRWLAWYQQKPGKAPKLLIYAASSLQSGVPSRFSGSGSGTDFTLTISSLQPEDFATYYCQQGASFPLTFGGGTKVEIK , report its measured koff.
A. 7.11e-05

Q. Given the entry GDF15 antibody agent Clone L, Fab (Fab, V domains shown, Fab; CH1 and CL of the Fab not specified; also called Fab of Clone L) VH: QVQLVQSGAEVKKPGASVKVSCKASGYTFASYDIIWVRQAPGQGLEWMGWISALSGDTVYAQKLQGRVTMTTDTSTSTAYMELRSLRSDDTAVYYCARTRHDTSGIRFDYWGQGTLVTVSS VL: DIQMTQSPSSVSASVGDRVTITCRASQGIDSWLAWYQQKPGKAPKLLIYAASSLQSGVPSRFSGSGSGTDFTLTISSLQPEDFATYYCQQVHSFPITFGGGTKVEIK , report its measured koff.
A. 0.000576
